- ASSAY_SYSTEM: T1, Mouse Fc-human GDF15 (Mu IgG1Fc_Fxa_Hu GDF15) (human)
- T1 construct: Whole entry is the fusion: mouse IgG1 Fc, FXa site and linker, mature human GDF15; described as dimeric; also called Murine dimeric IgG1 Fc-human GDF-15 with FXa cleavage site; control human GDF15
- T1 chain: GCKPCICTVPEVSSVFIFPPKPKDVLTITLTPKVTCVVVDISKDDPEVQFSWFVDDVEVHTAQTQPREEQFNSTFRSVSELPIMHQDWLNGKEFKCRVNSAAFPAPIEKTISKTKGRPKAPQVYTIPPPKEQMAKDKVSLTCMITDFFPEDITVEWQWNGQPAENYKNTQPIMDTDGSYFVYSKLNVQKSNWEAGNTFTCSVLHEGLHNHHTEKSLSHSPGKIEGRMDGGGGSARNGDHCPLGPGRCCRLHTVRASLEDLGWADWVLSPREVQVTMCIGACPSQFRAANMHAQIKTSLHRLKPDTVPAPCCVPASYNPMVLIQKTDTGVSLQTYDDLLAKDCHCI
- TEST_METHOD_NOTES: SPR BIAcore T200, 37C; Fc-GDF15 captured, IgG as analyte; average of runs
Quick reference: koff of the listed items.
Enter your answer as a number in s⁻¹; do not include the unit.

Example entries begin here.
BINDER: GDF15_021 (antibody, human IgG1, kappa, V domains shown, Tested in bivalent format) VH: QVQLVQSGAEVKKPGSSVKVSCKASGYTFSSYNIDWVRQAPGQGLEWMGGINPINGLIFFNQKFQGRVTITADESTSTAYMELSSLRSEDTAVYYCAREAITTVGAMDHWGQGTLVTVSS VL: EIVLTQSPATLSLSPGERATLSCRTSENVHSYLAWYQQKPGQAPRLLIYDASNLADGIPARFSGSGSGTDFTLTISSLEPEDFAVYYCQQFWSDPYTFGQGTKVEIKR
UNIT_TAG: s⁻¹
koff: 0.000322

BINDER: GDF15_015 (antibody, human IgG1, kappa, V domains shown, Tested in bivalent format) VH: QVQLVQSGAEVKKPGSSVKVSCKASGYTFSDYNMDWVRQAPGQGLEWMGQINPNNGLAFYNQKFQGRVTITADESTSTAYMELSSLRSEDTAVYYCAREAITTVGATDYWGQGTLVTVSS VL: EIVLTQSPATLSLSPGERATLSCRTSQNVHSYLAWYQQKPGQAPRLLIYDASNLADGIPARFSGSGSGTDFTLTISSLEPEDFAVYYCQQFSNDPWTFGQGTKVEIKR
UNIT_TAG: s⁻¹
koff: 0.000101

Now, please, on to the next binder.
Task: Give the reported koff for this binder. GDF15_020 (antibody, human IgG1, kappa, V domains shown, Tested in bivalent format) VH: QVQLVQSGAEVKKPGSSVKVSCKASGYTFSDYNMDWVRQAPGQGLEWMGQINPNNGLANYNQKFQGRVTITADESTSTAYMELSSLRSEDTAVYYCAREAITTVGAMDYWGQGTLVTVSS VL: EIVLTQSPATLSLSPGERATLSCRASQNLHSYLAWYQQKPGQAPRLLIYDASTRADGIPARFSGSGSGTDFTLTISSLEPEDFAVYYCQQFWSDPYTFGQGTKVEIKR
Result: 0.000104
